A collection of molecules and their measured IC50
study_target: CCR4 (Homo sapiens, UniProt P51679)
Construct: CEM Cells Endogenous Express CCR4; endogenous in cells; host or cells: CEM cells
Sequence (P51679 whole entry): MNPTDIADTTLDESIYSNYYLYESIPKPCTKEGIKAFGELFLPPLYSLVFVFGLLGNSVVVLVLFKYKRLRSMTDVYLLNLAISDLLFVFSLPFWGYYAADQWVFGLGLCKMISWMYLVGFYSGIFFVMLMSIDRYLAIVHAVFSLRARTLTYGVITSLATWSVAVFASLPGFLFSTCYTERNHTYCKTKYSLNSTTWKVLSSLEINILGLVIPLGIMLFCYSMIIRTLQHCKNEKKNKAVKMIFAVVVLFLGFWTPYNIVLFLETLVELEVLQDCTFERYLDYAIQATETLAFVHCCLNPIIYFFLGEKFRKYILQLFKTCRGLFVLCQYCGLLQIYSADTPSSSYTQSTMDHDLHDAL
protocol_text: CEM cell chemotaxis (migration) assay to CCL22 (MDC) in 100% Fetal Bovine Serum (FBS)
Type: cell-based
condition_info: CEM cells in 100% FBS with 1% HEPEs; recombinant human CCL22 0.1 nM; 37° C. 60 minutes

Known results for molecules:
molecule | IC50
COc1cnc(N2CCN(C(=O)[C@H]3CN(C)C(=O)N3)CC2)nc1N[C@H](C)c1ccc(Cl)cc1Cl | < 100 nM
C[C@@H](Nc1nc(N2CC[C@H](NC(=O)[C@H]3CCC(=O)N3)[C@@H](O)C2)ncc1Cl)c1ccc(Cl)cc1Cl | 100 to 1000 nM
C[C@@H](Nc1nc(N2CCN(C(=O)[C@H]3CCC(=O)N3C)CC2)ncc1Cl)c1ccc(Cl)cc1Cl | < 100 nM
C[C@@H](Nc1nc(N2CCN(C(=O)[C@H]3C[C@@H](O)CN3)CC2)ncc1Cl)c1ccc(Cl)cc1Cl | < 100 nM
C[C@@H](Nc1nc(C2CCN(C3CCCN(CCC(=O)O)C3)CC2)ncc1Cl)c1ccc(Cl)cc1Cl (stereo partly shown) | < 100 nM

Fill in reported IC50 for this entry: C[C@@H]1CN(c2ncc(Cl)c(N[C@H](C)c3ccc(Cl)cc3Cl)n2)CCN1C(=O)N1CCNCC1
> 1000 nM

Fill in reported IC50 for this entry: C[C@@H](Nc1nc(N2CCN(C(=O)[C@H]3CCC(=O)N3)CC2)ncc1F)c1ccc(F)cc1Cl
< 100 nM

---

A collection of compounds and their measured IC50
study_target: CCR4 (Homo sapiens)
Construct: CEM Cells Endogenous Express CCR4; endogenous in cells; host or cells: CEM cells
protocol_text: CEM cell chemotaxis (migration) assay to CCL22 (MDC) in HBSS buffer with 0.1% BSA
Assay type: cell-based
condition_info: CEM cells in HBSS with 0.1% BSA; recombinant human CCL22 0.1 nM; 37° C. 60 minutes

Known results for compounds:
compound | study_target | IC50
C[C@@H](Nc1nc(N2CCC(NC(=O)[C@H]3CC(F)(F)CN3)CC2)ncc1Cl)c1ccc(Cl)cc1Cl [Example 1.136] | CCR4 (Homo sapiens) | > 1 µM
C[C@@H](Nc1nc(N2CCN(C(=O)[C@H]3CCCN3)CC2)nc(N)c1Cl)c1ccc(Cl)cc1Cl [Example 1.080] | CCR4 (Homo sapiens) | < 0.1 µM

Fill in reported IC50 for this entry: C[C@@H](Nc1nc(C2=CCN(C(=O)CN(C)C)CC2)ncc1Cl)c1ccc(Cl)cc1Cl [Example 1.020]
< 0.1 µM

Fill in reported IC50 for this entry: C[C@H](Nc1nc(N2CCN(C(=O)[C@H]3CCC(=O)N3)CC2)ncc1Cl)c1cc(F)c(Cl)cc1Cl [Example 1.110]
> 1 µM

Fill in reported IC50 for this entry: C[C@@H](Nc1nc(N2CCN(C(=O)[C@H]3CCC(=O)N3)CC2)ncc1Cl)c1ccccn1 [Example 1.256]
> 1 µM

Fill in reported IC50 for this entry: C[C@@H](Nc1nc(N2CCC(NC(=O)C3CCN(C)C3)CC2)ncc1Cl)c1ccc(Cl)cc1Cl (some centres unmarked) [Example 1.009]
< 0.1 µM

Fill in reported IC50 for this entry: C[C@@H](Nc1nc(N2CCN(S(=O)(=O)CCN(C)C)CC2)ncc1Cl)c1ccc(Cl)cc1Cl [Example 1.016]
< 0.1 µM

Fill in reported IC50 for this entry: CNC1CCN(C(=O)C2CCN(c3ncc(Cl)c(N[C@H](C)c4ccc(Cl)cc4Cl)n3)CC2)C1 (some centres unmarked) [Example 1.068]
< 0.1 µM

Fill in reported IC50 for this entry: C[C@@H](Nc1nc(N2CC[C@@H](NC(=O)[C@H]3CCCN3)[C@H](O)C2)ncc1Cl)c1ccc(Cl)cc1Cl [Example 1.013]
< 0.1 µM

Fill in reported IC50 for this entry: C[C@@H](Nc1ncc(C(F)(F)F)c(N2CCN(C(=O)[C@H]3CCCN3)CC2)n1)c1ccc(Cl)cc1Cl [Example 1.006]
< 0.1 µM

Fill in reported IC50 for this entry: C[C@@H](Nc1nc(N2CCC(N(C)C(=O)[C@H]3CCCN3)CC2)ncc1Cl)c1ccc(Cl)cc1Cl [Example 1.008]
< 0.1 µM

Fill in reported IC50 for this entry: Cc1cnc(N2CCN(C(=O)[C@H]3CCCN3)CC2)nc1N[C@H](C)c1ccc(Cl)cc1Cl [Example 1.071]
< 0.1 µM

Fill in reported IC50 for this entry: C[C@@H]1CN(c2ncc(Cl)c(N[C@H](C)c3ccc(Cl)cc3Cl)n2)[C@@H](C)CN1C1CCCN(CCC(=O)O)C1 (some centres unmarked) [Example 1.017]
< 0.1 µM

Fill in reported IC50 for this entry: C[C@@H](Nc1nc(N2CCN(C(=O)CN(C)C)CC2)ncc1Cl)c1ccc(Cl)cc1Cl [Example 1.041]
< 0.1 µM

Fill in reported IC50 for this entry: C[C@@H](Nc1nc(N2CCN(C(=O)[C@@H]3CCCN3)CC2)ncc1Cl)c1ccc(Cl)cc1Cl [Example 1.052]
< 0.1 µM

Fill in reported IC50 for this entry: C[C@@H](Nc1nc(C2=CCN([C@H]3CCCN(CCO)C3)CC2)ncc1Cl)c1ccc(Cl)cc1Cl [Example 1.058]
< 0.1 µM

Fill in reported IC50 for this entry: C[C@@H]1CN(c2ncc(Cl)c(N[C@H](C)c3ccc(Cl)cc3Cl)n2)[C@@H](C)CN1C(=O)[C@H]1CCCN1 [Example 1.034]
< 0.1 µM

Fill in reported IC50 for this entry: C[C@@H](Nc1nc(N2CCN(C(=O)[C@H]3CCN3)CC2)ncc1Cl)c1ccc(Cl)cc1Cl [Example 1.033]
< 0.1 µM

Fill in reported IC50 for this entry: C[C@@H](Nc1nc(N2CCC(C3CCCNC3)CC2)ncc1Cl)c1ccc(Cl)cc1Cl (some centres unmarked) [Example 1.045]
< 0.1 µM

Fill in reported IC50 for this entry: C[C@@H](Nc1nc(N2CCC(C(=O)N(C)CCN(C)C)CC2)ncc1Cl)c1ccc(Cl)cc1Cl [Example 1.025]
< 0.1 µM

Fill in reported IC50 for this entry: C[C@@H](Nc1nc(C2=CCN([C@H]3CCCN(CCC(=O)O)C3)CC2)ncc1Cl)c1ccc(Cl)cc1Cl [Example 1.057]
< 0.1 µM

Fill in reported IC50 for this entry: CNC1CCN(C(=O)N2CCN(c3ncc(Cl)c(N[C@H](C)c4ccc(Cl)cc4Cl)n3)CC2)C1 (some centres unmarked) [Example 1.005]
< 0.1 µM

Fill in reported IC50 for this entry: Cc1nc(N2CCN(C(=O)[C@H]3CCC(=O)N3)CC2)nc(N[C@H](C)c2ccc(Cl)cc2Cl)c1Cl [Example 1.113]
< 0.1 µM

Fill in reported IC50 for this entry: C[C@@H](Nc1nc(N2CCN(C(=O)[C@H]3CCCN3C)CC2)ncc1Cl)c1ccc(Cl)cc1Cl [Example 1.024]
< 0.1 µM

Fill in reported IC50 for this entry: C[C@@H](Nc1nc(N2CCN(C(=O)[C@H]3CCCN3)[C@@H](C)C2)ncc1Cl)c1ccc(Cl)cc1Cl [Example 1.011]
< 0.1 µM

Fill in reported IC50 for this entry: C[C@@H](Nc1nc(N2CC3CC2CN3C(=O)[C@H]2CCCN2)ncc1Cl)c1ccc(Cl)cc1Cl (some centres unmarked) [Example 1.031]
0.1 to 1 µM

---

A collection of compounds and their measured pIC50
study_target: CCR4 (Homo sapiens)
Construct: CEM Cells Endogenous Express CCR4; endogenous in cells; host or cells: CEM cells
protocol_text: CEM cell chemotaxis (migration) assay to CCL22 (MDC) in 100% Fetal Bovine Serum (FBS)
Type: cell-based
condition_info: CEM cells in 100% FBS with 1% HEPEs; recombinant human CCL22 0.1 nM; 37° C. 60 minutes
pIC50: −log10 of the molar value.

Known results for compounds:
compound | study_target | pIC50
C[C@@H](Nc1nc(N2CC3CC2CN3C(=O)[C@H]2CCCN2)ncc1Cl)c1ccc(Cl)cc1Cl (stereo partly drawn) | CCR4 (Homo sapiens) | 6.00 to 7.00
C[C@@H](Nc1nc(N2CCN(C(=O)C3(N)CCOCC3)CC2)ncc1Cl)c1ccc(Cl)cc1Cl | CCR4 (Homo sapiens) | 6.00 to 7.00
C[C@@H](Nc1nc(N2CCC(OC3CCN(C)C3)CC2)ncc1Cl)c1ccc(Cl)cc1Cl (stereo partly drawn) | CCR4 (Homo sapiens) | > 7.00
C[C@@H](Nc1nc(N2CCN(C(=O)CN(C)C)CC2)ncc1Cl)c1ccc(Cl)cc1Cl | CCR4 (Homo sapiens) | > 7.00
C[C@@H](Nc1nc(N2CCN(C(=O)c3cn(C)cn3)CC2)ncc1Cl)c1ccc(Cl)cc1Cl | CCR4 (Homo sapiens) | 6.00 to 7.00

Fill in reported pIC50 for this entry: C[C@@H](Nc1nc(N2CCN(C(=O)[C@H]3COCCN3)CC2)ncc1Cl)c1ccc(Cl)cc1Cl
> 7.00

Fill in reported pIC50 for this entry: C[C@H](Nc1nc(N2CCN(C(=O)[C@H]3CCC(=O)N3)CC2)ncc1Cl)c1cc(F)c(Cl)cc1Cl
< 6.00

Fill in reported pIC50 for this entry: COc1cnc(N2CCN(C(=O)[C@H]3CC[C@@H](C)N3)CC2)nc1N[C@H](C)c1ccc(Cl)cc1Cl
> 7.00

Fill in reported pIC50 for this entry: C[C@@H](Nc1nc(N2CCN(C(=O)[C@H]3CC(F)(F)CN3)CC2)ncc1Cl)c1ccc(Cl)cc1Cl
6.00 to 7.00

Fill in reported pIC50 for this entry: C[C@@H](Nc1nc(N2CCC(NC(=O)[C@H]3C[C@H](F)CN3)CC2)ncc1Cl)c1ccc(Cl)cc1Cl
6.00 to 7.00

Fill in reported pIC50 for this entry: C[C@@H](Nc1nc(N2CCN(C(=O)[C@H]3C[C@@H](F)CN3)CC2)ncc1Cl)c1ccc(Cl)cc1Cl
> 7.00

Fill in reported pIC50 for this entry: C[C@@H](Nc1nc(N2CCN(C(=O)[C@@H]3COCCN3)CC2)ncc1Cl)c1ccc(Cl)cc1Cl
6.00 to 7.00
